Target: human D2 receptor (Homo sapiens)
Construct: host or cells: CHO-K1
Sequence (P14416 whole entry): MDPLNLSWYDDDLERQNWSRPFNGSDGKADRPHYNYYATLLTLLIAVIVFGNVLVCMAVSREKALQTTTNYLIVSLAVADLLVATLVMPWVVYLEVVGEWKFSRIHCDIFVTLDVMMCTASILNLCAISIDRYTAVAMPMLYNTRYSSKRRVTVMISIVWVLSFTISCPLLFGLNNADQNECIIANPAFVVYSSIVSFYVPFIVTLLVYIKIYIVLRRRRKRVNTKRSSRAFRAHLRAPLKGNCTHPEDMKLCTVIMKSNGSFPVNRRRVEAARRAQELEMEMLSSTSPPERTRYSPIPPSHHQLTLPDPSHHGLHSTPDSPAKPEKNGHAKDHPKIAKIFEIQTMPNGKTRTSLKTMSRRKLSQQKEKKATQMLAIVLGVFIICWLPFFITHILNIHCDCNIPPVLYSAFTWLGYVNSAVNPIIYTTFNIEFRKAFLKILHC
Assay: Dopamine assay: functional cAMP read-out (HitHunter cAMP XS+, Gi/o agonist format)
Assay type: cell-based
Settings: EC50 at the D2 receptor, CHO-K1 cells overexpressing the human D2 receptor, cAMP read-out, 25 µM forskolin, n = 2 independent experiments
Protocol: Dopaminergic activity was determined with a functional assay in CHO-K1 cells overexpressing the human D2 receptor, using a cAMP read-out (Eurofins DiscoverX Corporation, Fremont, CA, USA). The cells (5000 cells/cm^2) were seeded in a total volume of 20 μL onto white 384-well microplates and incubated at 37 °C for 18 h prior to testing. cAMP modulation was determined using the DiscoverX HitHunter cAMP XS+ assay. […]
MEASURED ATTRIBUTE: EC50

C[C@H]1[C@H](C)CC[C@]2(C(=O)O)CC[C@]3(C)C(=CC[C@@H]4[C@@]5(C)C[C@@H](O)[C@H](O)C(C)(C)[C@@H]5CC[C@]43C)[C@H]12 [compound 10, Corosolic acid] :: > 50 µM
CC1(C)CC[C@]2(C(=O)O)CC[C@]3(C)C(=CC[C@@H]4[C@@]5(C)CC[C@H](O)C(C)(C)[C@@H]5CC[C@]43C)[C@@H]2C1 [oleanolic acid, reference compound] :: ≥ 50 µM
CC1(C)CC[C@]2(C(=O)O)CC[C@]3(C)C(=CC[C@@H]4[C@@]5(C)C[C@@H](O)[C@@H](O)C(C)(C)[C@@H]5CC[C@]43C)[C@@H]2C1 [compound 7, 3-epi-Maslinic acid] :: 5.1 µM
